- experimentDescription: NCI Yeast Anticancer Drug Screen. Data for the mec2-1 strain (AID 157)
- conditionDetails: S. cerevisiae mec2-1 strain, at 50.0 µM, stronger effect = higher value
This is part of a sample that, as a whole, favours compounds with a hit. Of some 79,000 tested, about 15% had one in any assay. The source made the active and inactive calls. No stated cut-off is given here; in the data, active means growth inhibition above about 70%; inactive means the rest.
recordedMetric: growth inhibition

Your task in this section: give growth inhibition for each listed record.
1. CCCCCCCCCCCCCCOc1ccc(Sc2ccc([N+](=O)[O-])cc2)cc1
2. CSc1c(C)c(C)nn1-c1ccccc1
3. CCOC(=O)C1=C(C)N[C@H](c2ccccc2[N+](=O)[O-])N[C@H]1c1ccccc1[N+](=O)[O-]
4. CSc1ncc(CO)c(Nc2ccccc2Cl)n1

Reply text:
-0.1% (inactive)
-7.6% (inactive)
19.7% (inactive)
14.4% (inactive)

====

- experimentDescription: NCI Yeast Anticancer Drug Screen. Data for the bub3 strain (AID 167)
- conditionDetails: S. cerevisiae bub3 mutant strain, at 50.0 µM, stronger effect = higher value
The panel holds about 79,000 compounds, 15% with a hit somewhere; the sample as a whole holds those more often.
recordedMetric: growth inhibition (%)
Answers are plain numbers, in %.

Recorded growth inhibition, per entry:
C1=NCCN=Cc2ccccc2O/N=N/Oc2ccccc21 :: 15.4
O=C(N/N=C/c1ccc(Cl)cc1)c1ccccc1NC(=O)C1CC1 :: 11.8
CC(=O)NC(=O)C(C(C)=O)c1ccccc1 (stereo not given) :: -7.75
S=c1sc2c(Cl)nc(Cl)nc2n1-c1ccccc1 :: 9.65
CC(=O)NC1CC(C)(C)NC(C)(C)C1 :: 0.5
O=C(c1ccc(Cl)cc1)c1ccc2ccccc2c1 :: 7.8
Cc1nc2c(o1)C(=Nc1ccccc1)c1ccccc1C2=Nc1ccccc1 :: -20.1
COCCO[Si](OCCOC)(OCCOC)OCCOC :: 7.4

Your task in this section: give growth inhibition for each listed record.
1. CCN(CC)c1cc2c(cc1Br)-c1ccccc1C2=O
2. O=C(CC[N+](=O)[O-])OCC1OC(OC(=O)CC[N+](=O)[O-])C(O)C(O)C1O (stereo not given)
3. Cc1cccc[n+]1CCC(N)=O

Reply text:
[7.95, 14.8, -15.8]

Your task in this section: give growth inhibition for each listed record.
1. O=C(NC(Cc1c[nH]c2ccccc12)(C(=O)O)C(=O)O)OCc1ccccc1
2. O=C(c1ccccc1)C1(c2ccccc2)CCCCC1
3. CCCCCCCC(=O)NC(O)C(Cl)(Cl)C(C)Cl (stereo not given)
4. O=C(CCN1CCCC1)Nc1ccc2sc3ccccc3c(=O)c2n1
5. CCOC(=O)Cn1c(=O)c(-c2ccccc2NC(C)=O)nc2ccccc21
6. Nc1cccc(S(=O)(=O)O)c1
7. N=C(Oc1ccccc1)c1ccccc1
8. COc1c(OC)c(C2(O)C(=O)N(C)c3ccccc32)c2c(c1C1(O)C(=O)N(C)c3ccccc31)OCO2 (stereo not given)

Reply text:
2.1
0.45
-1.55
16.6
0.4
-13.8
-13.1
3.05

Your task in this section: give growth inhibition for each listed record.
1. CCOC(=O)/C(=N\O)C(C)(C)c1ccnc2ccccc12
2. CC(=O)CC(=O)NCc1ccc2c(c1)OCO2

Reply text:
1. -5
2. -15.1

====

- experimentDescription: NCI Yeast Anticancer Drug Screen. Data for the mec2-1 strain (AID 157)
- conditionDetails: S. cerevisiae mec2-1 strain, at 50.0 µM, stronger effect = higher value
The panel holds about 79,000 compounds, 15% with a hit somewhere; the sample as a whole holds those more often.
recordedMetric: growth inhibition (%)
Numbers only, in %.

COc1ccccc1NC(=O)C1=C(C)NC(C)=C(C(=O)Nc2ccccc2OC)C1c1ccco1 :: -8.65

Your task in this section: give growth inhibition for each listed record.
1. Clc1ccc(CSc2cnnc(SCc3ccc(Cl)c(Cl)c3)c2SCc2ccc(Cl)c(Cl)c2)cc1Cl
2. Cn1cnc([N+](=O)[O-])c1Sc1ccncc1S(N)(=O)=O
3. C=C1CCC2C(C)(CO)C(O)CCC2(C)C1CCC1=CCOC1=O (stereo unspecified)
4. O=C1OC(=O)C2C1N=NC2(c1ccccc1)c1ccccc1 (stereo unspecified)

Reply text:
1: 5.15; 2: -14.4; 3: -17.6; 4: 26

====

- experimentDescription: NCI Yeast Anticancer Drug Screen. Data for the cln2 rad14 strain (AID 165);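 further: 0% = growth equal to vehicle treated cultures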
- conditionDetails: S. cerevisiae cln2 rad14 strain, at 50.0 µM, stronger effect = higher value
About 79,000 compounds went through this panel and 15% of them were active in at least one assay; those are over-represented in the sample as a whole.
recordedMetric: growth inhibition (%)
Numbers only, in %.

COC(=O)Cc1nc2ccccc2[nH]c1=O :: -29.2
c1ccc(C(c2ccc3c(c2)CCCC3)C(c2ccccc2)(c2ccccc2)c2ccccc2)cc1 (stereo not drawn) :: 16.5
Cc1cc2c(=O)c3ccccc3[nH]c2c(C(N)=O)c1C :: -6.9

Your task in this section: give growth inhibition for each listed record.
1. O=C(O)C12CCCCC1CCCC2 (stereo not drawn)
2. CCC(=O)Nc1ncnc2ncn(C(=O)CC)c12
3. CCCCC1NC(=O)OC1=O (stereo not drawn)
4. Cc1nc2cccc([N+](=O)[O-])c2c(O)[n+]1C
5. O=C(O)c1ccccc1C(=O)CCC(=O)c1ccccc1C(=O)O
6. O=C(OC(c1ccccc1)c1ccccc1)c1ccccc1C(=O)c1ccccc1

Reply text:
[26.1, -23.6, 1.9, -17.6, -8.95, -16.6]

Your task in this section: give growth inhibition for each listed record.
1. C=C1C(=O)[C@@]23CC[C@@H]4[C@@]5(C)CCC[C@@]4(OC5=O)C2(C)CC[C@]1(OC)C3 (stereo partly drawn)
2. COc1cc(/C=C/C=C2\CCC/C(=C\C=C\c3ccc(O)c(OC)c3)C2=O)ccc1O

Reply text:
1: 88.5; 2: 19.3

Your task in this section: give growth inhibition for each listed record.
1. NC(=O)N/N=C(\Cc1nc2ccc(Cl)cc2[nH]c1=O)C(=O)Nc1ccc(Cl)cc1Cl
2. Cc1ccc(NC(=S)SCc2ccc([N+](=O)[O-])cc2)cc1C

Reply text:
1: -30.1; 2: -8.9

====

- experimentDescription: NCI Yeast Anticancer Drug Screen. Data for the sgs1 mgt1 strain (AID 161);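 further: 0% = growth of cultures given vehicle only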
- conditionDetails: S. cerevisiae sgs1 mgt1 strain, at 50.0 µM, stronger effect = higher value
This is part of a sample that, as a whole, favours compounds with a hit. Of some 79,000 tested, about 15% had one in any assay.
Think of 20% as a floor: if growth inhibition stands on it or above, it is Fulfilled; beneath it, Not fulfilled.

Inquiry: Item Cc1ccc(C)c2c1C1CCCCC3(OCCCO3)C21O (stereo unspecified) with growth inhibition of 20% or above?
Reply text: Not fulfilled

Inquiry: Item COC(=O)c1cccc2c1ccc1ccc3ccccc3c12 with growth inhibition of 20% or above?
Reply text: Not fulfilled

Inquiry: Item C#C/C=C/CC(OC(C)=O)C1C/C=C\CC(Br)C(CC)O1 (stereo unspecified) with growth inhibition of 20% or above?
Reply text: Fulfilled

Inquiry: Item CCCCCCCCCCCCCCCCN1C(=O)c2ccccc2S1(=O)=O with growth inhibition of 20% or above?
Reply text: Not fulfilled

Inquiry: Item Nc1ccccc1N1C(=O)C(Cl)=C(Cl)C1=O with growth inhibition of 20% or above?
Reply text: Fulfilled

Inquiry: Item O=C1N=C2SC(=S)NC(=S)N2NC12c1ccccc1-c1ccccc12 with growth inhibition of 20% or above?
Reply text: Fulfilled

====

For each of the compounds below, state its growth inhibition.
- experimentDescription: NCI Yeast Anticancer Drug Screen. Data for the sgs1 mgt1 strain (AID 161);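 further: 0% = growth of cultures given vehicle only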
- conditionDetails: S. cerevisiae sgs1 mgt1 strain, at 50.0 µM, stronger effect = higher value
Compounds without any hit were thinned out: in the full panel of roughly 79,000, 15% have a hit.
Give bare numbers, in %.

Recorded growth inhibition, per entry:
O=C1CC2(CCCC2)C(=O)N1c1ccc(O)c(CN2CCCCC2)c1 :: -19.6
COc1ccc2c3c([nH]c2c1)[C@H]1C[C@H]2[C@H](C[C@@H](O)[C@H](OC)[C@H]2C(=O)O)CN1CC3 :: -18.9
COc1ccc2c(c1)CC1=C2CCC2(C)C(=O)CC=C12 (stereo unspecified) :: -7.65
CCOC(=O)NC(Nc1cc(Cl)ccc1OC)(C(F)(F)F)C(F)(F)F :: -26.1
O=c1ccocc1OC1OC(CO)C(O)C(O)C1O (stereo unspecified) :: -21.1
COc1nc(NC2OC(CO)C(O)C(O)C2O)c(/C=N/O)c(=O)n1C (stereo unspecified) :: -6.35

Your task in this section: give growth inhibition for each listed record.
1. CCCCCCCCC(C)c1cccc(C(C)CCCCCCCC)c1O (stereo unspecified)
2. C=C1CC(OC(=O)c2ccc([N+](=O)[O-])cc2)C1
3. CC(C)=Nn1cnc(C(=N)C#N)c1N
4. N#Cc1ccc2c(c1)Sc1ccccc1N2
5. Nc1ccc(S(=O)(=O)n2cccc2)cc1

Reply text:
[10.5, -16.5, -0.9, -2.9, -19.9]
